Entries and their Rape plant response rating (0 to 10 scale) values follow.
system: rape; test: Test B pre/postemergence rape; format: in vivo, Brassica napus; settings: Preemergence, Rate 125 g/ha; 0 is no effect, 10 is complete control
Value kind: Rape plant response rating (0 to 10 scale)

[[record]]
chem_smiles = "C=C(C)CCn1c(=O)on(C(=O)N(c2ccc(F)cc2)C(C)C)c1=O"
observed_result = 0

[[record]]
chem_smiles = "CCCn1c(=O)on(C(=O)N(c2ccc(F)cc2F)C(C)C)c1=O"
observed_result = 9

[[record]]
chem_smiles = "Cc1ccccc1-n1c(=O)on(C(=O)N(c2ccc(Cl)cc2Cl)C(C)C)c1=O"
observed_result = 0

[[record]]
chem_smiles = "Cc1nc(C)c(Cn2c(=O)on(C(=O)N(c3ccc(F)cc3)C(C)C)c2=O)s1"
observed_result = 0


###

Test system: duck salad
Assay: Test B flood test duck salad
Assay type: in vivo, Heteranthera limosa
Conditions: Rate 500 g/ha; Pre-emergence; flood test species; scale 0 to 10 (0 no effect, 10 complete control)
Protocol: At the same time, these crop and weed species were also treated with postemergence applications of test chemicals formulated in the same manner. Plants ranged in height from 2 to 18 cm (1- to 4-leaf stage) for postemergence treatments. […] Treated plants and controls were maintained in a greenhouse for twelve to sixteen days, after which all species were compared to controls and visually evaluated. […]
Value kind: Ducksalad plant response rating

[[record]]
molecule = "CCC(CC)n1c(=O)on(C(=O)N(c2ccccc2)C(C)C)c1=O"
value_kind = "Ducksalad plant response rating"
observed_result = 0

[[record]]
molecule = "CCOC(=O)C(C)N(C(=O)n1oc(=O)n(-c2c(C)cccc2OC)c1=O)c1ccc(F)cc1 (centres unmarked)"
value_kind = "Ducksalad plant response rating"
observed_result = 0

[[record]]
molecule = "CC(C)N(C(=O)n1oc(=O)n(CC(C)(C)C)c1=O)c1ccc(F)cc1F"
value_kind = "Ducksalad plant response rating"
observed_result = 2

[[record]]
molecule = "C#CCn1c(=O)on(C(=O)N(c2ccc(F)cc2)C(C)C)c1=O"
value_kind = "Ducksalad plant response rating"
observed_result = 2

[[record]]
molecule = "CC(C)N(C(=O)n1oc(=O)n(CCl)c1=O)c1ccc(F)cc1"
value_kind = "Ducksalad plant response rating"
observed_result = 0

[[record]]
molecule = "CC(C)N(C(=O)n1oc(=O)n(-c2ccc3ccccc3c2)c1=O)c1ccc(F)cc1"
value_kind = "Ducksalad plant response rating"
observed_result = 0

[[record]]
molecule = "CCN(CC)C(=O)Cn1c(=O)on(C(=O)N(c2ccc(F)cc2)C(C)C)c1=O"
value_kind = "Ducksalad plant response rating"
observed_result = 0

[[record]]
molecule = "CC(C)N(C(=O)n1oc(=O)n(CCCl)c1=O)c1ccccc1"
value_kind = "Ducksalad plant response rating"
observed_result = 0


###

test system: rape; assay: Test B pre/postemergence rape; assay type: in vivo, Brassica napus; settings: Rate 250 g/ha, Postemergence; scale of 0 to 10 where 0 is no effect and 10 is complete control
In this section, each of the compounds is paired with its reported Plant response rating, Rape.
Value kind: Plant response rating, Rape

[[record]]
chem_smiles = "CC(C)N(C(=O)n1oc(=O)n(CC2CCC2)c1=O)c1ccc(F)cc1F"
observed_result = 2

[[record]]
chem_smiles = "Cc1ccccc1-n1c(=O)on(C(=O)N(c2ccc(OC(F)(F)F)cc2)C(C)C)c1=O"
observed_result = 0

[[record]]
chem_smiles = "COC(Cn1c(=O)on(C(=O)N(c2ccc(F)cc2)C(C)C)c1=O)OC"
observed_result = 1

[[record]]
chem_smiles = "CC(C)N(C(=O)n1oc(=O)n(C(C)C)c1=O)c1cnccn1"
observed_result = 0

[[record]]
chem_smiles = "C=CCCCn1c(=O)on(C(=O)N(c2ccc(Cl)cc2)C(C)C)c1=O"
observed_result = 7

[[record]]
chem_smiles = "CC(C)N(C(=O)n1oc(=O)n(CC2CCC2)c1=O)c1ccccc1"
observed_result = 7

[[record]]
chem_smiles = "CC(C)N(C(=O)n1oc(=O)n(C2CCOCC2)c1=O)c1ccc(F)cc1"
observed_result = 0


###

system: wheat; test: Test B pre/postemergence wheat; assay type: in vivo, Triticum aestivum; details: Rate 125 g/ha; Preemergence; scale of 0 to 10 where 0 is no effect and 10 is complete control
Value kind: Wheat plant response rating

[[record]]
compound = "Cc1nc(C)c(Cn2c(=O)on(C(=O)N(c3ccc(F)cc3)C(C)C)c2=O)s1"
observed_result = 0

[[record]]
compound = "CC(C)N(C(=O)n1oc(=O)n(C(C)C)c1=O)c1cnccn1"
observed_result = 0

[[record]]
compound = "CC(C)N(C(=O)n1oc(=O)n(N(C)C)c1=O)c1ccccc1"
observed_result = 6

[[record]]
compound = "CCOC(=O)C(C)N(C(=O)n1oc(=O)n(C2CCCCC2)c1=O)c1ccc(F)cc1 (stereo not shown)"
observed_result = 0


###

Measured Plant response rating, Nutsedge accompanies every entry in the list below.
tested on: purple nutsedge; assay: Test B pre/postemergence purple nutsedge; assay type: in vivo, Cyperus rotundus; conditions: Postemergence, Rate 62 g/ha; scale 0 to 10, 0 is no effect, 10 is complete control
Value kind: Plant response rating, Nutsedge

[[record]]
compound = "C=C(Cl)Cn1c(=O)on(C(=O)N(c2ccc(F)cc2F)C(C)C)c1=O"
value_kind = "Plant response rating, Nutsedge"
observed_result = 0

[[record]]
compound = "COCCn1c(=O)on(C(=O)N(c2ccc(F)cc2)C(C)C)c1=O"
value_kind = "Plant response rating, Nutsedge"
observed_result = 3

[[record]]
compound = "CCC(C)n1c(=O)on(C(=O)N(c2ccccc2)C(C)C)c1=O (centres unmarked)"
value_kind = "Plant response rating, Nutsedge"
observed_result = 0

[[record]]
compound = "CC(C)N(C(=O)n1oc(=O)n(CCCCl)c1=O)c1ccc(Cl)cc1"
value_kind = "Plant response rating, Nutsedge"
observed_result = 0

[[record]]
compound = "CC(C)N(C(=O)n1oc(=O)n(CC2CCCCO2)c1=O)c1ccccc1 (centres unmarked)"
value_kind = "Plant response rating, Nutsedge"
observed_result = 0


###

test system: duck salad; experiment: Test B flood test duck salad; assay type: in vivo, Heteranthera limosa; conditions: Rate 500 g/ha, headed Pre-emergence (flood test species); scale 0 to 10 (0 no effect, 10 complete control)
Value kind: Plant response rating, Ducksalad

[[record]]
chem_smiles = "Cc1cccc(C)c1-n1c(=O)on(C(=O)N(c2ccc(F)cc2)C(C)C)c1=O"
value_kind = "Plant response rating, Ducksalad"
observed_result = 1

[[record]]
chem_smiles = "Cc1nn(C)c(Cl)c1-n1c(=O)on(C(=O)N(c2ccccc2)C(C)C)c1=O"
value_kind = "Plant response rating, Ducksalad"
observed_result = 0

[[record]]
chem_smiles = "CC(C)N(C(=O)n1oc(=O)n(C(C)C)c1=O)c1ccc(F)cc1"
value_kind = "Plant response rating, Ducksalad"
observed_result = 9

[[record]]
chem_smiles = "Cc1cccc(C)c1-n1c(=O)on(C(=O)N(c2ccc(Cl)cc2)C(C)C)c1=O"
value_kind = "Plant response rating, Ducksalad"
observed_result = 0


###

Examples of molecules with documented Wild oats plant response rating follow.
tested on: wild oat; assay: Test B pre/postemergence wild oat; type: in vivo, Avena fatua; conditions: Preemergence, Rate 250 g/ha; scale of 0 to 10 where 0 is no effect and 10 is complete control
Value kind: Wild oats plant response rating

[[record]]
molecule = "CC(C)n1c(=O)on(C(=O)N(c2ccc(Cl)cc2Cl)C2CCC2)c1=O"
value_kind = "Wild oats plant response rating"
observed_result = 0

[[record]]
molecule = "CCOC(=O)C(C)N(C(=O)n1oc(=O)n(-c2c(C)cccc2OC)c1=O)c1ccc(F)cc1 (stereo not drawn)"
value_kind = "Wild oats plant response rating"
observed_result = 0

[[record]]
molecule = "CC1CC1n1c(=O)on(C(=O)N(c2ccc(Cl)cc2)C(C)C)c1=O (stereo not drawn)"
value_kind = "Wild oats plant response rating"
observed_result = 0

[[record]]
molecule = "CCN(CC)C(=O)Cn1c(=O)on(C(=O)N(c2ccc(F)cc2)C(C)C)c1=O"
value_kind = "Wild oats plant response rating"
observed_result = 5

[[record]]
molecule = "CC(C)N(C(=O)n1oc(=O)n(-c2ccc3ccccc3c2)c1=O)c1ccc(F)cc1"
value_kind = "Wild oats plant response rating"
observed_result = 0

[[record]]
molecule = "CC(C)N(C(=O)n1oc(=O)n(CCl)c1=O)c1ccc(F)cc1"
value_kind = "Wild oats plant response rating"
observed_result = 0

[[record]]
molecule = "CCN(C(=O)n1oc(=O)n(C2CCCCC2)c1=O)C1CCCCC1"
value_kind = "Wild oats plant response rating"
observed_result = 0

[[record]]
molecule = "CC(C)N(C(=O)n1oc(=O)n(C(C)C)c1=O)c1cnccn1"
value_kind = "Wild oats plant response rating"
observed_result = 0

[[record]]
molecule = "Cc1nc(C)c(Cn2c(=O)on(C(=O)N(c3ccc(F)cc3)C(C)C)c2=O)s1"
value_kind = "Wild oats plant response rating"
observed_result = 3

